Recorded measurements of Kd, one per entry
tested-system: PSD-95 PDZ3cα protein (residues R309-S422) (UniProt P78352 309-422)
Sequence (P78352 309-422): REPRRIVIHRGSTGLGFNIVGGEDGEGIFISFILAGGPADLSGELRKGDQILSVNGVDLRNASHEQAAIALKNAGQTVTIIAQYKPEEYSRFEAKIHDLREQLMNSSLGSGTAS
experiment-notes: SPR
Where no end group is shown, it is not given here. [ ]: non-standard residue; d: D form. Trp(5-OH) = N[C@@H](Cc1c[nH]c2ccc(O)cc12)C(=O)O; Phe(4-NH2) = Nc1ccc(C[C@H](N)C(=O)O)cc1

{"columns": ["binder", "Kd / nM"],
 "data": [
  ["RRRRRRG[dS]FPPWVQQTRV [D-Ser3 (peptide 14), SYNGAP peptide with d-Ser]", 7.8],
  ["RRRRRRGSFPP[Trp(5-OH)]VQQTRV [W7-OHW (peptide 13), SYNGAP peptide with 5-hydroxy-Trp in place of Trp7]", 446],
  ["RRRRRRGSFP[dP]WVQQTRV [D-Pro5 (peptide 16), SYNGAP peptide with d-Pro at the second proline]", 24.3],
  ["RRRRRRGS[Phe(4-NH2)]PPWVQQTRV [F4-NH2F (peptide 12), SYNGAP peptide with ζ-Amino-Phe in place of Phe4]", 67.8],
  ["RRRRRRGSF[dP]PWVQQTRV [D-Pro4 (peptide 15), SYNGAP peptide with d-Pro at the first proline]", 6.1],
  ["RRRRRRGSFPPWV[dQ]QTRV [D-Gln9 (peptide 18), SYNGAP peptide with d-Gln]", 57.3],
  ["GSFPPWVQ [αC binder (peptide 8), fragment of the SYNGAP peptide made up of only αC helix interacting residues]", 11100],
  ["RRRRRRGSFPPW[dV]QQTRV [D-Val8 (peptide 17), SYNGAP peptide with d-Val]", 20.9]
]}
